- Tested on: duck salad (Heteranthera limosa)
- protocol_notes: Test B flooded paddy test
- Format: in vivo
- assay_setup: Rate 1000 g/ha, scale of 0 to 100 where 0 is no effect and 100 is complete control, visually evaluated after 13 to 15 days
outcome_measure: Plant response rating, Ducksalad

Task item: Requested read-out: Plant response rating, Ducksalad. Entry: CC(C)c1ccn(C2OCN(c3cccc(C(F)(F)F)c3)C2=O)n1 (stereo not shown) [Compound 27]
Reply: 100

Task item: Try the molecule CC1CCc2cn(C3CCN(c4cccc(C(F)(F)F)c4)C3=O)nc21 (stereo not shown) [Compound 11]
Reply: 90

Task item: Try the molecule CC(C)(C)c1ccn(C2CCN(c3cc(C(F)(F)F)cc(C(F)(F)F)c3)C2=O)n1 (stereo not shown) [Compound 54]
Reply: 30

Task item: Try the molecule CC(C)(C)c1ccn(C2C(=O)N(c3cccc(C(F)(F)F)c3)C[S+]2[O-])n1 (stereo not shown) [Compound 29]
Reply: 0

* * *

- Tested on: pigweed (Amaranthus retroflexus)
- protocol_notes: Test C preemergence
- Type: in vivo
- assay_setup: preemergence; Rate 250 g/ha; scale 0 to 100, 0 no effect, 100 complete control
outcome_measure: Plant response rating, Pigweed
The answer should be a number; do not append a unit.

Task item: Requested read-out: Plant response rating, Pigweed. Entry: Cc1ccc(N2CCC(n3ccc(C(C)(C)C)n3)C2=O)cc1OCCCl (centres unmarked)
Reply: 80

Task item: Try the compound CCC(CC)c1ccn(C2OCN(c3cccc(OC(F)F)c3)C2=O)n1 (centres unmarked)
Reply: 100

Task item: Try the compound CC(C)(C)c1ccn(C2CCN(c3cccc(I)c3)C2=O)n1 (centres unmarked)
Reply: 40

Task item: Try the compound CCCC(C)c1ccn(C2OCN(c3cccc(OC(F)F)c3)C2=O)n1 (centres unmarked)
Reply: 70

Task item: Try the compound CC(C)Oc1cccc(N2CCC(n3ccc(C(C)(C)C)n3)C2=O)c1 (centres unmarked)
Reply: 0

Task item: Try the compound CCC(C)Oc1cccc(N2CCC(n3ccc(C(C)(C)C)n3)C2=O)c1 (centres unmarked)
Reply: 0

Task item: Try the compound CC(C)(C)c1ccn(C2CCN(c3cccc(SC(F)(F)F)c3)C2=O)n1 (centres unmarked)
Reply: 20

Task item: Try the compound CCC(CC)c1ccn(C2CCN(c3cccc(OC)c3)C2=O)n1 (centres unmarked)
Reply: 0

* * *

- System: rice (Oryza saliva)
- protocol_notes: Test B preemergence
- Type: in vivo
- assay_setup: Preemergence, Rate 500 g/ha; scale 0 to 100, 0 no effect, 100 complete control
outcome_measure: Plant response rating, Rice
The answer should be a number; do not append a unit.

Task item: // fetch rice (Oryza saliva) Plant response rating, Rice for CC(C)(C)c1nn(C2CCN(c3cccc(C(F)(F)F)c3)C2=O)cc1Cl (centres unmarked)
Reply: 0

Task item: Try the compound O=C1C(n2ccc(C3CCCCC3)n2)SCN1c1cccc(C(F)(F)F)c1 (centres unmarked)
Reply: 0

Task item: Try the compound CC(C)c1ccn(C2SCN(c3cccc(OC(F)F)c3)C2=O)n1 (centres unmarked)
Reply: 100

Task item: Try the compound CC(C)(C)c1ccn(C2CCN(c3ccc(F)c(C(F)(F)F)c3)C2=O)n1 (centres unmarked)
Reply: 0

Task item: Try the compound Cc1c(F)cc(N2CCC(n3ccc(C(C)(C)C)n3)C2=O)cc1Br (centres unmarked)
Reply: 0

* * *

- Tested on: soybean (Glycine max)
- protocol_notes: Test C preemergence
- Assay type: in vivo
- assay_setup: preemergence, Rate 500 g/ha, visual evaluation after 12 to 14 days
I would appreciate it if you labelled entries Criterion met when Plant response rating (0 to 100), Soybean is 20 or higher, otherwise Criterion not met.

Task item: Answer whether Plant response rating (0 to 100), Soybean of CCCC(C)c1ccn(C2OCN(c3cccc(C(F)(F)F)c3)C2=O)n1 (stereo not drawn) [Compound 89] is greater than or equal to 20.
Reply: Criterion met

Task item: Try the molecule CCC(C)c1ccn(C2OCN(c3cccc(OC(F)(F)F)c3)C2=O)n1 (stereo not drawn) [Compound 67]
Reply: Criterion not met

Task item: Try the molecule CCCC(C)c1ccn(C2CCN(c3cccc(C(F)(F)F)c3)C2=O)n1 (stereo not drawn) [Compound 100]
Reply: Criterion not met

Task item: Try the molecule CCC(CC)c1ccn(C2CCN(c3cccc(OC)c3)C2=O)n1 (stereo not drawn) [Compound 96]
Reply: Criterion met

Task item: Try the molecule CSc1cccc(N2CCC(n3ccc(C(C)(C)C)n3)C2=O)c1 (stereo not drawn) [Compound 86]
Reply: Criterion not met

Task item: Try the molecule CCC(C)Oc1cccc(N2CCC(n3ccc(C(C)(C)C)n3)C2=O)c1 (stereo not drawn) [Compound 127]
Reply: Criterion not met

Task item: Try the molecule CCC(CC)c1ccn(C2CCN(c3ccc(Cl)c(OC)c3)C2=O)n1 (stereo not drawn) [Compound 118]
Reply: Criterion met

Task item: Try the molecule CCC(C)c1ccn(C2CCN(c3ccc(F)c(C(F)(F)F)c3)C2=O)n1 (stereo not drawn) [Compound 145]
Reply: Criterion met

Task item: Try the molecule CC1(c2ccn(C3OCN(c4cccc(C(F)(F)F)c4)C3=O)n2)CC1 (stereo not drawn) [Compound 62]
Reply: Criterion not met

Task item: Try the molecule CC(C)(C)c1ccn(C2OCN(c3cccc(OC(F)F)c3)C2=O)n1 (stereo not drawn) [Compound 133]
Reply: Criterion not met

Task item: Try the molecule COc1cc(N2CCC(n3ccc(C(C)C)n3)C2=O)ccc1Br (stereo not drawn) [Compound 140]
Reply: Criterion met

* * *

- System: yellow nutsedge (Cyperus esculentus)
- protocol_notes: Test C preemergence
- Format: in vivo
- assay_setup: preemergence; Rate 250 g/ha; scale 0 to 100, 0 no effect, 100 complete control
outcome_measure: Plant response rating, Nutsedge
The answer should be a number; do not append a unit.

Task item: // fetch yellow nutsedge (Cyperus esculentus) Plant response rating, Nutsedge for CC(C)Oc1cccc(N2CCC(n3ccc(C(C)C)n3)C2=O)c1 (stereo not drawn)
Reply: 10

Task item: Try the compound Cc1ccc(N2CCC(n3ccc(C(C)(C)C)n3)C2=O)cc1I (stereo not drawn)
Reply: 0

Task item: Try the compound CCCC(C)c1ccn(C2CCN(c3cccc(OCC)c3)C2=O)n1 (stereo not drawn)
Reply: 50

Task item: Try the compound CCCC(C)c1ccn(C2CCN(c3cccc(C(F)(F)F)c3)C2=O)n1 (stereo not drawn)
Reply: 0

Task item: Try the compound CCC(CC)c1ccn(C2CCN(c3ccc(Cl)c(OC)c3)C2=O)n1 (stereo not drawn)
Reply: 0

Task item: Try the compound CSc1cccc(N2CCC(n3ccc(C(C)(C)C)n3)C2=O)c1 (stereo not drawn)
Reply: 0

Task item: Try the compound CC(C)(C)c1ccn(C2CCN(c3cccc(OC(F)F)c3)C2=O)n1 (stereo not drawn)
Reply: 20

Task item: Try the compound COc1cccc(N2CCC(n3ccc(C(C)(C)C)n3)C2=O)c1 (stereo not drawn)
Reply: 20

Task item: Try the compound CC1(c2ccn(C3SCN(c4cccc(C(F)(F)F)c4)C3=O)n2)CC1 (stereo not drawn)
Reply: 50

Task item: Try the compound CCCC(C)c1ccn(C2SCN(c3cccc(OC(F)(F)F)c3)C2=O)n1 (stereo not drawn)
Reply: 0

Task item: Try the compound CCC(CC)c1ccn(C2CCN(c3ccc(Br)c(OC)c3)C2=O)n1 (stereo not drawn)
Reply: 0

Task item: Try the compound CCOc1cccc(N2CCC(n3ccc(C(C)C)n3)C2=O)c1 (stereo not drawn)
Reply: 100

* * *

- System: morningglory (Ipomoea hederacea)
- protocol_notes: Test C preemergence
- Format: in vivo
- assay_setup: Rate 62 g/ha; scale 0 to 100, 0 no effect, 100 complete control
outcome_measure: Plant response rating, Morningglory
The answer should be a number; do not append a unit.

Task item: Requested read-out: Plant response rating, Morningglory. Entry: CC(C)c1ccn(C2SCN(c3cccc(OC(F)(F)F)c3)C2=O)n1 (stereo not drawn)
Reply: 30

Task item: Try the compound CC(C)c1ccn(C2SCN(c3cccc(OC(F)F)c3)C2=O)n1 (stereo not drawn)
Reply: 0

Task item: Try the compound O=C1C(n2ccc(C3CCCCC3)n2)SCN1c1cccc(OC(F)(F)F)c1 (stereo not drawn)
Reply: 20

Task item: Try the compound CCC(CC)c1ccn(C2SCN(c3cccc(C(F)(F)F)c3)C2=O)n1 (stereo not drawn)
Reply: 20

Task item: Try the compound CC(C)(C)c1ccn(C2CCN(c3cccc(Cl)c3)C2=O)n1 (stereo not drawn)
Reply: 0

Task item: Try the compound O=C1C(n2ccc(C3CCC3)n2)SCN1c1cccc(OC(F)F)c1 (stereo not drawn)
Reply: 0

Task item: Try the compound CC(C)(C)c1ccn(C2CCN(c3ccc(F)c(Br)c3)C2=O)n1 (stereo not drawn)
Reply: 0

Task item: Try the compound CC(C)(C)c1ccn(C2SCN(c3cccc(OC(F)(F)F)c3)C2=O)n1 (stereo not drawn)
Reply: 30

Task item: Try the compound CC1(c2ccn(C3OCN(c4cccc(C(F)(F)F)c4)C3=O)n2)CC1 (stereo not drawn)
Reply: 0
